Test system: fibronectin
assayDetails: Cell adhesion-inhibitory test against fibronectin (competitive assay, number of adhered cells)
Assay type: cell-based, human
appliedConditions: concentration .25 mg/ml; endothelium cells of blood vessel; 37° C., one hour; 0 mg/ml control 160
No end group written: not given here. succinylated CM‑chitin = succinylated carboxymethyl-chitin (CM-chitin), conjugated to the peptide; sulfated CM‑chitin = sulfated carboxymethyl-chitin (CM-chitin), conjugated to the peptide; succinylated CM‑Chitin = succinylated CM-chitin
observationType: Cell Adhesion-Inhibitory effect Against Fibronectin (number of adhered cells) (cell/well)
Answers are plain numbers, in cell/well.

Example entries and their recorded answers appear below.
Sulfated CM-Chitin-Gly-Arg-Gly-Asp-Ser ({sulfated CM‑chitin}-GRGDS) [CM--chitin derivative-14]    111
Sulfated CM-Chitin-Arg-Gly-Asp-Ser ({sulfated CM‑chitin}-RGDS) [CM--chitin derivative-13]    97
Succinylated CM-Chitin-(Arg-Gly-Asp)2 ({succinylated CM‑Chitin}-RGDRGD) [CM--chitin derivative-10]    122

Please give Cell Adhesion-Inhibitory effect Against Fibronectin (number of adhered cells), item by item, for the list that follows.
1. Succinylated CM-Chitin-Arg-Gly-Asp-Ser ({succinylated CM‑chitin}-RGDS) [CM--chitin derivative-2]
2. Maleyl Derivative of CM-Chitin Arg-Gly-Asp-Ser (RGDS; also: conjugated to maleyl CM-chitin) [CM--chitin derivative-3]
3. CM-Chitin Arg-Gly-Asp-Ser (RGDS; also: conjugated to CM-chitin) [CM--chitin derivative-18]

Reply text:
[135, 123, 133]
